Experiment: qHTS Assay for Lipid Storage Modulators in Drosophila S3 Cells
Details: BODIPY lipid droplet fluorescence, 18-24 h, cells fed with added oleic acid; series mostly up to 46.1 µM
Hit rate of the full screen: of about 320,000 compounds, about 2,100 (0.66%) were called active. Another 53% or so got no clear call; they are omitted. Calls come from the whole dose curve; as a rule, active = well fitted inhibition curve with a large enough effect in the signal ratio, with a control signal flat (not every such curve was filed as active); inconclusive = small, poorly fitted or top-dose-only effect, or effect the other way, or a change in a side signal; inactive = flat fitted curve, though single readings scatter; the % refers to the signal ratio. This is one part of a sample in which actives are shown more often than they occur.
Possible outcomes: Y = active, N = inactive

COc1ccc(OC)c(/C=C/C(=O)N2CCN(S(=O)(=O)c3cc(C)ccc3C)CC2)c1 = N
CSc1nnc(N2C(=O)C(O)=C(C(=O)c3ccco3)C2c2cccc(Cl)c2)s1 (stereo not given) = N
COc1ccc(C(=O)/C=C/c2ccc(O)cc2)cc1 = N
CN(CC(O)COc1ccc2ccccc2c1)C1CCCCC1 (stereo not given) = N
Nc1cccc2c1C(=O)N(C(=O)/C=C/c1cccc(F)c1)C2=O = N
Nc1cccc2c1C(=O)N(C(=O)/C=C/c1ccc(F)cc1)C2=O = N
COC(=O)c1ccc2c(c1)C(C)(C)C(/C=C/c1ccc(O)cc1)=[N+]2C = Y
COc1ccc(OC)c(/C=C/C(=O)N2CCCc3ccccc32)c1 = N
CCN(C(=O)CCN1C(=O)/C(=C/c2ccccc2)SC1=S)C1CCS(=O)(=O)C1 (stereo not given) = Y
COc1cc(/C=C/C(=O)N2C(=O)c3cccc(N)c3C2=O)cc(OC)c1OC = Y

----------
Test: qHTS Assay for Lipid Storage Modulators in Drosophila S3 Cells
Settings: BODIPY lipid droplet fluorescence, 18-24 h, cells fed with added oleic acid; series mostly up to 46.1 µM
Out of some 320,000 compounds screened, about 2,100 (0.66%) were called active. Inconclusive results (about 53%) are left out. The call rests on the fitted dose curve; in most records, active means well fitted inhibition curve with a large enough effect in the signal ratio, with a control signal flat (not every such curve was filed as active); inconclusive means small, poorly fitted or top-dose-only effect, or effect the other way, or a change in a side signal; inactive means flat fitted curve, though single readings scatter; the % refers to the signal ratio. The entries come from a sample that favours actives as a whole.
Outcome codes: active, inactive

CS(=O)(=O)Nc1cccc(C2=NN(S(=O)(=O)c3ccccc3)C(c3ccco3)C2)c1 (stereo not given) = inactive
O=S(=O)(c1ccccc1)N1N=C(c2ccc(Br)cc2)CC1c1ccco1 (stereo not given) = active
COc1ccc(S(=O)(=O)N2CCN(CC(=O)c3[nH]c(C)c(C(C)=O)c3C)CC2)cc1OC = inactive
CCN(CC(=O)Nc1c(F)cccc1F)C(=O)c1ccc(S(=O)(=O)N2CCCC2)cc1 = inactive
CCN(CC(=O)Nc1ccccc1OC)C(=O)C1CCC1 = inactive
CCCN(CC(=O)Nc1ccccc1OC)C(=O)Cc1ccccc1F = inactive
CC(=O)N1N=C(c2ccc(NS(=O)(=O)c3ccccc3)cc2)CC1c1ccco1 (stereo not given) = active
CCCN(CC(=O)Nc1ccccc1OC)C(=O)C1CCCC1 = active
CCCN(CC(=O)Nc1ccccc1OC)C(=O)CCC(=O)c1ccc(Cl)s1 = inactive
COCCn1c(=O)[nH]c2cc(C(=O)NCCN3CCN(c4ccccc4F)CC3)ccc2c1=O = inactive

----------
Assay: qHTS Assay for Lipid Storage Modulators in Drosophila S3 Cells;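 for cell number change: cells counted by Cell Tracker Red CMTPX staining in the red channel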
Conditions: BODIPY lipid droplet fluorescence, 18-24 h, cells fed with added oleic acid; measured here: cell count max response
Screen size: about 320,000 compounds; about 2,100 (0.66%) were called active. About 53% were inconclusive and are not listed. The full list was thinned out, with actives kept by preference.
test_readout: cell number change (%)

CCOc1ccc(N2C(=O)Cc3ccccc3C2=O)cc1 = 0.833
O=C(Nc1cc(C(=O)N2CCN(c3ccccc3O)CC2)ccc1Cl)c1cccs1 = 5.21
CCNC(=O)NC(=O)C(C)OC(=O)CCCc1nc2ccccc2s1 (stereo not given) = 2.05
CC(OC(=O)CCCc1nc2ccccc2s1)C(N)=O (stereo not given) = 18.5
Cc1ccc(S(=O)(=O)N(C)C)cc1NC(=O)c1cncc(Br)c1 = -18
COc1ccc(S(=O)(=O)N2CCCCC2)cc1NC(=O)CNc1ccc(F)cc1C = 11.8
COc1ccc([N+](=O)[O-])cc1NCC(=O)Nc1cc(S(=O)(=O)N2CCCCC2)ccc1C = -23.1
CN(C)S(=O)(=O)c1ccc2c(c1)nc(CCC(=O)NCc1ccc(Cl)cc1)n2C = -1.78
COc1ccc(S(=O)(=O)N2CCCCC2)cc1NCC(=O)Nc1ccc(C)cc1 = -1.26
O=C(CSc1ccccc1)Nc1cccc(S(=O)(=O)N2CCOCC2)c1 = -14.2

Sourced from PubChem BioAssay AID2685
